biological target: extracellular domain of the FGFR2b protein (NP_075259.4) (UniProt P21802); assay: phage ELISA
Sequence (P21802 other isoform, or with tags, fused parts or gaps): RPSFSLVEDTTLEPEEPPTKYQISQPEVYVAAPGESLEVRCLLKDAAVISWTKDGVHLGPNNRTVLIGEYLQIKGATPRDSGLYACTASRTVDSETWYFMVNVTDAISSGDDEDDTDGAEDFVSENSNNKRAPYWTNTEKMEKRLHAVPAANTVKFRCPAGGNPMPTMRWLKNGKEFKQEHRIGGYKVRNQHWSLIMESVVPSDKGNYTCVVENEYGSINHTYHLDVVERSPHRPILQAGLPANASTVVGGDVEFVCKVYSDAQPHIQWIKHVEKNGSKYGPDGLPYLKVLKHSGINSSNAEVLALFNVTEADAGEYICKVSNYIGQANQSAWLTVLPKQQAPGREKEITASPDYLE
endpoint-label: OD (450 nm) value
One number for each entry.

3F5 scFv displayed on phage (scFv) scFv: EIQLQQSGAELVKPGASVKMSCKASGYTFRYYNMHWVKRTPGQGLEWIGLIYPDNGDTSYNQKFKGKATLTADTSSSTAYMQLSSLTSEDSAVYYCARGGLDYWGQGTTLTVSSGGGGSGGGGSGGGGSDIVLTQSPASLSASVGETVTITCGASENIYGALNWYQRKQGKSPQLLIYGATNLADGMSSRFSGSGSGRQYSLKISSLHPDDVATYYCQNVLSTPYTFGGGTKLEIK = 1.94

Read the next record carefully.
Looking up 3E1 scFv displayed on phage (scFv) scFv: QVQLQQPGAEVVKPGASVKMSCKASGYTFTDYYIHWVKQTPGQGLEWIGAIYPDNGDTSYNQKFKVKATLTADKSSSTAYMQLSSLTSEDSAVYYCARAFTYWGQGTLVTVSAGGGGSGGGGSGGGGSDILITQSPASLSASVGETVTITCGASENIYGALNWYQRKQGKSPQLLIYGATNLADGMSSRFSGSGSGRQYSLKISSLHPDDVATYYCQNVLSTPYTFGGGTKLEIK , I found its OD (450 nm) value recorded as 2.17
